Target: CARM1 (PRMT4) (Homo sapiens, UniProt Q86X55)
Construct: Flag-CARM1-His was eluted with 200 ug/ml FLAG peptide in buffer A; made in house; host or cells: HEK 293F cells (BacMam baculovirus)
Sequence (Q86X55 2-585 isoform Q86X55-1): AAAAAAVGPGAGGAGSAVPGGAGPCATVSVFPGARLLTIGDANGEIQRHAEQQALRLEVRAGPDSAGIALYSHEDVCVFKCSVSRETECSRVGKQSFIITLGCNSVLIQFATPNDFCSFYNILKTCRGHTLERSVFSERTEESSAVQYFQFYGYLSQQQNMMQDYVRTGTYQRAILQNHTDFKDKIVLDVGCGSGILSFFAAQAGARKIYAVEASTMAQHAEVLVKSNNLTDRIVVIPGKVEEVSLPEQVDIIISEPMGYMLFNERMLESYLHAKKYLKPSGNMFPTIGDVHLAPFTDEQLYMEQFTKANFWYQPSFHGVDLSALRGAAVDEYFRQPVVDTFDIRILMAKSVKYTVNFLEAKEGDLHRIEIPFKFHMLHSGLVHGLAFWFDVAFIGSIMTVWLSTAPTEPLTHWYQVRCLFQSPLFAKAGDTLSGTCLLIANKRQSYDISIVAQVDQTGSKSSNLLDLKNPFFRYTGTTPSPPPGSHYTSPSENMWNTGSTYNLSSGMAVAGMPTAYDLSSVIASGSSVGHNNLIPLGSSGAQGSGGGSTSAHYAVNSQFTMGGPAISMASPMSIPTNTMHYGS
Assay: CARM1 Biochemical Assay
Conditions: Table 2a, numerical; single experiment or average of multiple experiments; read-out: PRMT4 IC50
pIC50: −log10 of the molar value.
Below, each of the compounds is paired with its reported pIC50 value.

> print(dat)
                                   compound                               target.desc  value.measured
1  CN(CCN)Cc1ncoc1-c1ccc(C#N)cc1 [Compound 1]  CARM1 (PRMT4) (Homo sapiens, UniProt Q86X55)          < 5.00

Moving on to another compound below.
I would be grateful if you could share the reported pIC50 for CN(CCN)Cc1ccnn1-c1ccc(C#N)cc1 [Compound 2] .
< 5.00

###

target: PRMT1 (Homo sapiens, UniProt Q99873); construct: made in house; host or cells: High Five insect cells (baculovirus); assay: PRMT1 Biochemical Assay; conditions: Table 2a, numerical; single experiment or average of multiple experiments; read-out: PRMT1 IC50
Sequence (Q99873 with tags, fused parts or gaps): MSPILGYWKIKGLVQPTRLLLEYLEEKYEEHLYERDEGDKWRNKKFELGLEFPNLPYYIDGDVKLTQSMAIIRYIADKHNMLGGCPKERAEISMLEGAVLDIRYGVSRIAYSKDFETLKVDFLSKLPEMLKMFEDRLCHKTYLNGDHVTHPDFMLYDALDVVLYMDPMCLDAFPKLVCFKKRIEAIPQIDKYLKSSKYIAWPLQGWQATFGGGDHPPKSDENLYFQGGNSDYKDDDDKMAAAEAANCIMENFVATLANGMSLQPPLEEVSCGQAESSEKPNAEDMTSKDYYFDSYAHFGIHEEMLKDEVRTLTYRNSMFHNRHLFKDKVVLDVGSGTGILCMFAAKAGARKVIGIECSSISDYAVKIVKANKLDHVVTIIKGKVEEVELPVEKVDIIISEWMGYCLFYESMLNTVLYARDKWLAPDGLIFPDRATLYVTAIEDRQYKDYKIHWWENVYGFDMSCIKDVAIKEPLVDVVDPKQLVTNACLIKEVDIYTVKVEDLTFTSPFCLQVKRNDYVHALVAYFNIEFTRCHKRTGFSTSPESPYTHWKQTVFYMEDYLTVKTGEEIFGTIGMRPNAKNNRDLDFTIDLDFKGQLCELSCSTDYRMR
Below, each of the compounds is paired with its reported pIC50 value.
Schema: pIC50 number; meaning minus log10 of the concentration expressed in molar units.

Some compounds with known pIC50 results, for comparison:
> print(dat)
                             mol  value.measured
1  CN(CCN)Cc1ocnc1-c1ccc(C#N)cc1            6.57
2  CN(CCN)Cc1nsnc1-c1ccc(C#N)cc1            6.56
3  CN(CCN)Cc1ncoc1-c1ccc(C#N)cc1            6.50
4    CN(CCN)Cc1oncc1-c1ccc(F)cc1            5.57

I would be grateful if you could share the reported pIC50 for CN(CCN)Cc1n[nH]nc1-c1ccc(C#N)cc1 .
7.09

I would be grateful if you could share the reported pIC50 for CN(CCN)Cc1ccnn1-c1ccc(C#N)cc1 .
6.80

I would be grateful if you could share the reported pIC50 for CN(CCN)Cc1[nH]cnc1-c1ccc(C#N)cc1 .
6.67

###

molecular target: PRMT6 (Homo sapiens, UniProt Q96LA8); construct: Expressed full-length human Flag- and His-tagged PRMT6 protein was purified from cell paste; made in house; host or cells: HEK 293F cells (BacMam baculovirus); assay: PRMT6 Biochemical Assay; settings: Table 2, biochemical evaluation; read-out: PRMT6 IC50 (class)
Sequence (Q96LA8 with tags, fused parts or gaps): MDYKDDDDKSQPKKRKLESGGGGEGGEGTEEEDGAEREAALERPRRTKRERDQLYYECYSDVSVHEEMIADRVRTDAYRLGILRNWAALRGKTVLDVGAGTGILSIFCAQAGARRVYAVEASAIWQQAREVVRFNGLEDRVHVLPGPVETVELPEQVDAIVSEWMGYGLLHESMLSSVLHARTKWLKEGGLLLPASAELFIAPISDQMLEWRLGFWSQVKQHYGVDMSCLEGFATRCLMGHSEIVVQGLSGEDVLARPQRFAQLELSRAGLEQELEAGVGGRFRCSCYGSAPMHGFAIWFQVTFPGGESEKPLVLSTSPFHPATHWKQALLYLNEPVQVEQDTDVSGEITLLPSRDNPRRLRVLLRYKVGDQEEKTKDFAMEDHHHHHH
pIC50: −log10 of the molar value.
ENDPOINT_NAME: pIC50

Some compounds with known pIC50 results, for comparison:
> print(dat)
                                   mol  value.measured
1        CN(CCN)Cc1cncn1-c1ccc(C#N)cc1    5.52 to 6.00
2  CN(CCN)Cc1ccnn1-c1ccc(Oc2ccccc2)cc1          > 7.00
3     CN(CCN)Cc1[nH]cnc1-c1ccc(C#N)cc1    6.00 to 7.00
4        CN(CCN)Cc1ocnc1-c1ccc(C#N)cc1    6.00 to 7.00
5     CN(CCN)Cc1n[nH]nc1-c1ccc(C#N)cc1          > 7.00

I would be grateful if you could share the reported pIC50 for CN(CCN)Cc1cnnn1-c1ccc(C#N)cc1 .
< 5.00

I would be grateful if you could share the reported pIC50 for CN(CCN)Cc1ncoc1-c1ccc(C#N)cc1 .
6.00 to 7.00

I would be grateful if you could share the reported pIC50 for CN(CCN)Cc1nsnc1-c1ccc(C#N)cc1 .
6.00 to 7.00

I would be grateful if you could share the reported pIC50 for CN(CCN)Cc1ccnn1-c1ccc(C#N)cc1 .
> 7.00

I would be grateful if you could share the reported pIC50 for CC(C)Oc1ccc(-n2nccc2CN(C)CCN)cc1 .
> 7.00

I would be grateful if you could share the reported pIC50 for CN(CCN)Cc1oncc1-c1ccc(F)cc1 .
5.52 to 6.00

###

test system: mono-methyl arginine in RKO cells; assay: RKO Methylation Assay (In Cell Western); assay type: cell-based; conditions: Homo sapiens, 72 hours, numerical, single experiment or average of multiple experiments, read-out: In Cell Western EC30
ENDPOINT_NAME: EC30 (µM)
Your answer should be a plain number; it is taken to be in µM.

Some molecules with known EC30 results, for comparison:
> print(dat)
                                   mol                        target.desc  value.measured
1        CN(CCN)Cc1ocnc1-c1ccc(C#N)cc1  mono-methyl arginine in RKO cells            1.41
2        CN(CCN)Cc1ccnn1-c1ccc(C#N)cc1  mono-methyl arginine in RKO cells            15.1
3  CN(CCN)Cc1ccnn1-c1ccc(Oc2ccccc2)cc1  mono-methyl arginine in RKO cells            2.31
4     CC(C)Oc1ccc(-n2nccc2CN(C)CCN)cc1  mono-methyl arginine in RKO cells            1.63
5        CN(CCN)Cc1ncoc1-c1ccc(C#N)cc1  mono-methyl arginine in RKO cells            14.2

I would be grateful if you could share the reported EC30 for CN(CCN)Cc1n[nH]nc1-c1ccc(C#N)cc1 .
18.6

###

biological target: CARM1 (PRMT4) (Homo sapiens); construct: Flag-CARM1-His was eluted with 200 ug/ml FLAG peptide in buffer A; made in house; host or cells: HEK 293F cells (BacMam baculovirus); experiment: CARM1 Biochemical Assay; conditions: Table 2, biochemical evaluation; read-out: PRMT4 IC50 (class)
Below, each of the molecules is paired with its reported IC50 value.

> print(dat)
                             mol  value.measured
1  CN(CCN)Cc1ccnn1-c1ccc(C#N)cc1         > 10 µM

I would be grateful if you could share the reported IC50 for CN(CCN)Cc1ncoc1-c1ccc(C#N)cc1 .
> 10 µM

###

molecular target: PRMT1 (Homo sapiens, UniProt Q99873); construct: made in house; host or cells: High Five insect cells (baculovirus); test: PRMT1 Biochemical Assay; details: Table 2a, numerical; single experiment or average of multiple experiments; read-out: PRMT1 IC50
ENDPOINT_NAME: pIC50
Schema: pIC50 number; meaning minus log10 of the concentration expressed in molar units.

Some molecules with known pIC50 results, for comparison:
> print(dat)
                                mol                           target.desc  value.measured
1  CC(C)Oc1ccc(-n2nccc2CN(C)CCN)cc1  PRMT1 (Homo sapiens, UniProt Q99873)            7.86
2     CN(CCN)Cc1cncn1-c1ccc(C#N)cc1  PRMT1 (Homo sapiens, UniProt Q99873)            5.77

Moving on to another molecule below.
I would be grateful if you could share the reported pIC50 for CN(CCN)Cc1ccnn1-c1ccc(Oc2ccccc2)cc1 .
7.81
